Test: qHTS assay to identify small molecule antagonists of the androgen receptor (AR) signaling pathway using the MDA cell line in the presence of 0.5 nM R1881 - cell viability counter screen (AID 1259242); also: % is scaled to controls: 0 for no effect and ±100 for the full control effect; nearly all actives have a fitted effect of over 45% in size
Settings: MDA-kb2 viability, CellTiter-Fluor protease fluorescence, 16 h; series mostly up to 92.4 µM
Records with an inconclusive call do not appear. Active and inactive are the calls of the source. Calls follow the shape of the dose curve; as a rule, active = well fitted cell-killing curve with a large enough effect in the repeat runs; inconclusive = weak or mixed curves, or effect the other way; inactive = flat fitted curve, though single readings scatter.
Response enum: True for active, False for inactive

# lookup: test call for "ClC1=C(Cl)[C@]2(Cl)[C@@H]3[C@@H](Cl)[C@H](Cl)C[C@@H]3[C@@]1(Cl)C2(Cl)Cl"
False

* * *

Assay: qHTS assay to identify small molecule antagonists of the thyroid receptor (TR) signaling pathway (AID 743065); also: nearly all actives have a fitted effect of over 55% in size
Conditions: GH3.TRE-Luc, T3-stimulated luciferase inhibition, 23.5 h; series mostly up to 70.3 µM
Inconclusive results are not listed. Active and inactive are the calls of the source. Calls come from the whole dose curve; as a rule, active = well fitted inhibition curve with a large enough effect in the repeat runs; inconclusive = weak or mixed curves; inactive = no such curve, though single readings can be large or run the other way.
Response enum: active, inactive

- molecule: "O=C(O)COc1nc(Cl)c(Cl)cc1Cl"
  label class: "inactive"
- molecule: "CCC(C)(C)C(=O)OC1=C(c2ccc(Cl)cc2Cl)C(=O)OC12CCCCC2"
  label class: "active"
- molecule: "CCCSP(=O)(OCC)SCCC"
  label class: "inactive"

# lookup: test call for "CN(C)[C@@H]1C(=O)C(C(N)=O)=C(O)[C@@]2(O)C(=O)C3=C(O)c4c(O)ccc(Cl)c4[C@@](C)(O)[C@H]3C[C@@H]12"
inactive

# lookup: test call for "Cc1cc(C(C)(C)c2cc(C)c(O)c(C)c2)cc(C)c1O"
active

# lookup: test call for "CCCCCCCCc1ccc(O)cc1"
active

# lookup: test call for CNC(C)Cc1ccc2c(c1)OCO2 (centres undefined)
inactive

* * *

Assay: qHTS assay to test for compound auto fluorescence at 460 nm (blue) in HepG2 cells (AID 720687); also: % is scaled to controls: 0 for no effect and ±100 for the full control effect
Conditions: autofluorescence 405/460 nm, 1 h; series mostly up to 91.3 µM
Calls of active or inactive are those of the source. The call rests on the fitted dose curve; in most records, active means well fitted curve in the direction sought with a large enough effect in the repeat runs; inconclusive means weak or mixed curves; inactive means flat fitted curve, though single readings scatter.
value type: fluorescence, % of fluorescent control

Reference set, count: 4
- compound: "CC1(C)CC/C(=C/c2ccc(Cl)cc2)C1(O)Cn1cncn1 (stereo not given)"
  fluorescence, % of fluorescent control: "inactive"
- compound: "CCCOCC(=Nc1ccc(Cl)cc1C(F)(F)F)n1ccnc1"
  fluorescence, % of fluorescent control: "inactive"
- compound: "COC12CC[C@@]3(C[C@@H]1C(C)(O)C(C)(C)C)[C@H]1Cc4ccc(O)c5c4[C@@]3(CCN1CC1CC1)[C@H]2O5 (stereo not given in full)"
  fluorescence, % of fluorescent control: "inactive"
- compound: "Nc1ccc(Sc2ccc(N)cc2)cc1"
  fluorescence, % of fluorescent control: "inactive"

Determine its reported fluorescence, % of fluorescent control: CC(Cc1ccc(C(C)(C)C)cc1)CN1C[C@@H](C)O[C@@H](C)C1 (stereo not given in full)
inactive

* * *

Assay: qHTS assay to identify small molecule antagonists of the estrogen receptor alpha (ER-alpha) signaling pathway using the BG1 cell line - cell viability counter screen (AID 743081);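 also: compound given together with 17beta-estradiol as the ER stimulus; nearly all actives have a fitted effect of over 45% in size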
Settings: BG1Luc4E2 viability, CellTiter-Fluor, 22 h; series mostly up to 70.3 µM
Inconclusive results are not listed. Activity calls are given as the source filed them. Calls come from the whole dose curve; as a rule, active = well fitted cell-killing curve with a large enough effect in the repeat runs; inconclusive = weak or mixed curves, or effect the other way; inactive = flat fitted curve, though single readings scatter.
Response enum: active, inactive

Solved entries (count: 5):
- compound: "Clc1ccc(C(Cl)(Cl)Cl)c(Cl)c1"
  label class: "inactive"
- compound: "O=C(O)C1C2CCC(O2)C1C(=O)O (configuration not stated)"
  label class: "inactive"
- compound: "CC(C)OC(=S)S"
  label class: "inactive"
- compound: "[CH3][Hg][Cl]"
  label class: "active"
- compound: "CCOC(=O)OC1=C(c2cc(C)ccc2C)C(=O)NC12CCC(OC)CC2 (configuration not stated)"
  label class: "inactive"

# lookup: test call for "C[C@@H]1O[C@@H](O[C@H]2C[C@@H](O)[C@]3(CO)[C@H]4[C@H](O)C[C@]5(C)[C@@H](C6=CC(=O)OC6)CC[C@]5(O)[C@@H]4CC[C@]3(O)C2)[C@H](O)[C@H](O)[C@H]1O"
inactive

* * *

Assay: qHTS assay to identify small molecule antagonists of the retinoid acid receptor (RAR) signaling pathway - cell viability counter screen (AID 1159551); also: nearly all actives have a fitted effect of over 35% in size
Conditions: C3RL4 cells viability, ATP luminescence (CellTiter-Glo), 6 h; series mostly up to 92.4 µM
Results filed as inconclusive are left out. Calls of active or inactive are those of the source. Calls come from the whole dose curve; as a rule, active = well fitted cell-killing curve with a large enough effect in the repeat runs; inconclusive = weak or mixed curves, or effect the other way; inactive = flat fitted curve, though single readings scatter.
Response enum: 1 (active), 0 (inactive)

- molecule: "[Cl][Sb]([Cl])[Cl]"
  label class: 0
- molecule: "COc1ccc([N+](=O)[O-])cc1O"
  label class: 0
- molecule: "O=[N+]([O-])O.O=[N+]([O-])O.[Cd]"
  label class: 0
- molecule: "CCCCCCCCCCCCCCCCCCn1cc[n+](C)c1"
  label class: 1
- molecule: "O=C1c2ccccc2C(=O)C1C(=O)C(c1ccccc1)c1ccc(Cl)cc1 (stereo unspecified)"
  label class: 0

# lookup: test call for "c1cc[c]([Sb]([c]2ccccc2)[c]2ccccc2)cc1"
0

# lookup: test call for "c1ccc2cc3c(cc2c1)-c1cccc2cccc-3c12"
0

# lookup: test call for "Oc1cc(Cl)c(Cl)c(Cl)c1"
0

# lookup: test call for "CCOC(=O)C1(c2ccccc2)CCN(CCC(C#N)(c2ccccc2)c2ccccc2)CC1"
0

* * *

Assay: qHTS assay to identify small molecule agonists of the progesterone receptor (PR) signaling pathway - cell viability counter screen (AID 1346799); also: nearly all actives have a fitted effect of over 45% in size
Details: PR-UAS-bla HEK293T viability, CellTiter-Glo luminescence, 16 h; series mostly up to 92.4 µM
Records with an inconclusive call do not appear. Calls of active or inactive are those of the source. Calls come from the whole dose curve.
Response enum: t (active), f (inactive)

- compound: "CC1(C)CN=C(NN=C(/C=C/c2ccc(C(F)(F)F)cc2)/C=C/c2ccc(C(F)(F)F)cc2)NC1"
  label class: "t"
- compound: "Clc1ccc(CCC(Cn2ccnc2)Sc2c(Cl)cccc2Cl)cc1 (stereo unspecified)"
  label class: "t"

# lookup: test call for "ClCc1ccccc1CCl"
f

# lookup: test call for "O=C(CCCN1CCC2(CC1)C(=O)NCN2c1ccccc1)c1ccc(F)cc1"
f

# lookup: test call for COC(=O)N(C(=O)N1COC2(C(=O)OC)Cc3cc(Cl)ccc3C2=N1)c1ccc(OC(F)(F)F)cc1 (stereo unspecified)
f

# lookup: test call for CN(CCCC(O)c1cccnc1)N=O (stereo unspecified)
f

* * *

Assay: qHTS assay to identify small molecule agonists of the estrogen related receptor (ERR) signaling pathway from Tox21 library (AID 1224849); also: % is scaled to controls: 0 for no effect and ±100 for the full control effect; nearly all actives have a fitted effect of over 15% in size
Details: ERR reporter cell line, ONE-Glo luciferase, 18 h; at 92.4 µM (top of the series) unless noted
Activity calls are given as the source filed them. Calls come from the whole dose curve.
Response enum: active, inactive

- compound: "COC12CC[C@@]3(C[C@@H]1C(C)(O)C(C)(C)C)[C@H]1Cc4ccc(O)c5c4[C@@]3(CCN1CC1CC1)[C@H]2O5 (some centres not stated)"
  label class: "inactive"
- compound: "COCC(=O)N(c1c(C)cccc1C)[C@H](C)C(=O)OC"
  label class: "inactive"

Moving on to another compound below.
# lookup: test call for "O=[N+]([O-])c1ccc(Oc2ccc(C(F)(F)F)cc2[N+](=O)[O-])cc1"
inactive

* * *

Biological target: Acetylcholinesterase (Homo sapiens)
Assay: Acetylcholinesterase (AChE) small molecule antagonists: fluorescence cell-based qHTS assay (AID 1347398); also: nearly all actives have a fitted effect of over 50% in size
Details: SH-SY5Y cells; AChE activity; series mostly up to 115 µM
Inconclusive results are not listed. Activity calls are given as the source filed them. Calls come from the whole dose curve.
Response enum: YES (active), NO (inactive)

Solved entries (count: 8):
- compound: "BrCBr"
  label class: "NO"
- compound: "O=[N+]([O-])c1cc(Cl)ccc1Cl"
  label class: "NO"
- compound: "O=c1oc2ccccc2c(O)c1Cc1c(O)c2ccccc2oc1=O"
  label class: "NO"
- compound: "Nc1ccccc1C(=O)OC/C=C/c1ccccc1"
  label class: "NO"
- compound: "C[C@]12Cc3nonc3C[C@@H]1CC[C@@H]1[C@@H]2CC[C@@]2(C)[C@H]1CC[C@]2(C)O"
  label class: "NO"
- compound: "CCCCCCCCCCCCBr"
  label class: "NO"
- compound: "CCCOCC(=Nc1ccc(Cl)cc1C(F)(F)F)n1ccnc1"
  label class: "NO"
- compound: "CCOP(=O)(NC(C)C)Oc1ccc(SC)c(C)c1 (configuration not stated)"
  label class: "YES"

# lookup: test call for "O=C(CCl)C(Cl)Cl"
NO

* * *

Test: A CellTox Green Cytotoxicity Assay to monitor cytotoxicity in HEK293 cells - 0 hour (AID 1224869); also: % is scaled to controls: 0 for no effect and ±100 for the full control effect; nearly all actives have a fitted effect of over 50% in size
Conditions: CellTox Green fluorescence; series mostly up to 76.8 µM
Activity calls are given as the source filed them. Calls come from the whole dose curve; as a rule, active = well fitted activation curve with a large enough effect in the repeat runs; inconclusive = weak or mixed curves; inactive = flat fitted curve, though single readings scatter.
value type: cytotoxicity

- compound: "S=C(SSC(=S)N1CCCCC1)N1CCCCC1"
  cytotoxicity: "inactive"
- compound: "O=S(=O)(c1ccc(Cl)cc1)c1ccc(Cl)cc1"
  cytotoxicity: "inactive"
- compound: "CC(C)(C)c1ccc(CSc2cnn(C(C)(C)C)c(=O)c2Cl)cc1"
  cytotoxicity: "inactive"
- compound: "CCN(CC)c1c([N+](=O)[O-])cc(C(F)(F)F)c(N)c1[N+](=O)[O-]"
  cytotoxicity: "inactive"

Determine its reported cytotoxicity: CCOP(=O)(NC(C)C)Oc1ccc(SC)c(C)c1 (configuration not stated)
inactive

Determine its reported cytotoxicity: "CC(=O)[O-].CC(=O)[O-].[Hg+2]"
inactive

Determine its reported cytotoxicity: "O=C(CCCN1CCC2(CC1)C(=O)NCN2c1ccccc1)c1ccc(F)cc1"
inactive

Determine its reported cytotoxicity: CC1(C)CC/C(=C/c2ccc(Cl)cc2)C1(O)Cn1cncn1 (configuration not stated)
inactive

Determine its reported cytotoxicity: CCC(C)c1cc([N+](=O)[O-])cc([N+](=O)[O-])c1OC(=O)C=C(C)C (configuration not stated)
inactive

Determine its reported cytotoxicity: "N#Cc1ccc(O)cc1"
inactive

Determine its reported cytotoxicity: "N#CCc1ccc(Cl)cc1"
inactive

Determine its reported cytotoxicity: "ClC(Cl)=C(c1ccc(Cl)cc1)c1ccc(Cl)cc1"
inactive

Determine its reported cytotoxicity: "CCN"
inactive
